target: CFTR ΔF508 mutant (Homo sapiens, UniProt P13569, DEL508-508); construct: expressed in transfected cells; host or cells: CFBE41o- (adenoviral transduction); experiment: YFP-halide influx assay for the CFTR-ΔF508 mutation, gluconate buffer; format: cell-based; settings: CFBE41o- cells, forskolin 10.67 μM
Sequence (P13569 with tags, fused parts or gaps DEL508-508): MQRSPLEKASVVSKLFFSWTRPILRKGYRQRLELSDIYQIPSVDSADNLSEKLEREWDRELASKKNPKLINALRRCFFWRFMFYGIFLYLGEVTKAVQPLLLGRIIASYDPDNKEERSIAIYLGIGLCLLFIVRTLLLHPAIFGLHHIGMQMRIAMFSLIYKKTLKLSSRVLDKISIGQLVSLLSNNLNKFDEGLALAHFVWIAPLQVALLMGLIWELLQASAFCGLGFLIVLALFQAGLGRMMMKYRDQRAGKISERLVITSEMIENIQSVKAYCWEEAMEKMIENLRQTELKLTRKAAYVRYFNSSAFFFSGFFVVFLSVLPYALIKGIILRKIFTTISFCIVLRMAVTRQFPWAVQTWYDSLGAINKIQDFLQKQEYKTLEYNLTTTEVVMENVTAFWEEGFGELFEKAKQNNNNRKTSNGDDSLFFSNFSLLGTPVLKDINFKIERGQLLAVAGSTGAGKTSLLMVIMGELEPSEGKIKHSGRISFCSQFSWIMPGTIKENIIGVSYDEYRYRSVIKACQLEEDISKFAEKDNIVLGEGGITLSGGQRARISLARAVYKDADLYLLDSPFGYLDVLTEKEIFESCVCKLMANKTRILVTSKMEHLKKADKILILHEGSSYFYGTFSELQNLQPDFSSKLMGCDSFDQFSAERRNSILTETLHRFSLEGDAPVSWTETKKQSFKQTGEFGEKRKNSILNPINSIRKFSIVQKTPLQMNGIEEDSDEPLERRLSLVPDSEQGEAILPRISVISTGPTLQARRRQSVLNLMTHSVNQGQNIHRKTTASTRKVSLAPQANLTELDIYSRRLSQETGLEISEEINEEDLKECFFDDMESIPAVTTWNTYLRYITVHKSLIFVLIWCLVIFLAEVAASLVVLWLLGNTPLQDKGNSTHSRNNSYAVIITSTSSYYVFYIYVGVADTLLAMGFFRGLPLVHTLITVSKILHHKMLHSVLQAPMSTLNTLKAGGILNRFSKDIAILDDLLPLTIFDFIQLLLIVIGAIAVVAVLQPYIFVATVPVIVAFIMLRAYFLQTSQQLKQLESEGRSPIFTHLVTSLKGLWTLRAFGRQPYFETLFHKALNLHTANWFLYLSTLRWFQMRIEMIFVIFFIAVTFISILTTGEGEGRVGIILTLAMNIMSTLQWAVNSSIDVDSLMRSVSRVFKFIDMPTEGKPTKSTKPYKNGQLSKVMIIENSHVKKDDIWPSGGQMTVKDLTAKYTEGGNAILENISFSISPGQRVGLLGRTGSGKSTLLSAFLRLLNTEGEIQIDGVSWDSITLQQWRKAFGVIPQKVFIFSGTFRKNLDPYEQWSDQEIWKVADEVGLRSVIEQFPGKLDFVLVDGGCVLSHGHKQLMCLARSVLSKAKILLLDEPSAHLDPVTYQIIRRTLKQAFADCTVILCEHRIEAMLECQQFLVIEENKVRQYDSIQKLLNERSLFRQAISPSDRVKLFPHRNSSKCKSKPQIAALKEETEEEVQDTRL
pEC50: −log10 of the molar value.
QUANTITY_MEASURED: pEC50

Recorded pEC50, per entry:
NC(=O)c1cc(S(=O)(=O)N2Cc3ccccc3C2)sc1NC(=O)c1ccccc1F : 6.45
NC(=O)c1cc(S(=O)(=O)N(Cc2ccc(F)cc2)C2CC2)sc1NC(=O)c1cc[nH]n1 : 7.05

a. CN(CC(C)(C)C)S(=O)(=O)c1cc(C(N)=O)c(NC(=O)c2ccccc2F)s1
b. NC(=O)c1cc(S(=O)(=O)c2ccc(F)cc2)sc1NC(=O)C1(O)CC1
c. NC(=O)c1cc(S(=O)(=O)N2CCOCC2)sc1NC(=O)c1ccco1
d. NC(=O)c1cc(S(=O)(=O)N2CCOCC2)sc1NC(=O)c1cc(C(F)(F)F)[nH]n1
e. NC(=O)c1cc(S(=O)(=O)N2CCOCC2)sc1NC(=O)c1nccs1
## Task Order these by pEC50, descending, and give the full ranking. Please list the labels in the order you were asked to rank them.
## Result b, d, a, c, e
